target: human Tie2 (Homo sapiens, UniProt Q02763); construct: corresponding to the intracellular domain amino acids 776-1124 was generated by PCR; experiment: Tie2 PLC phosphorylation assay (GST-Tie2, FlashPlate); conditions: GST-Tie2 intracellular domain, 2 μM cold ATP, 1 hour at 37° C.; read-out: IC 50 Tie2
Sequence (Q02763 776-1124): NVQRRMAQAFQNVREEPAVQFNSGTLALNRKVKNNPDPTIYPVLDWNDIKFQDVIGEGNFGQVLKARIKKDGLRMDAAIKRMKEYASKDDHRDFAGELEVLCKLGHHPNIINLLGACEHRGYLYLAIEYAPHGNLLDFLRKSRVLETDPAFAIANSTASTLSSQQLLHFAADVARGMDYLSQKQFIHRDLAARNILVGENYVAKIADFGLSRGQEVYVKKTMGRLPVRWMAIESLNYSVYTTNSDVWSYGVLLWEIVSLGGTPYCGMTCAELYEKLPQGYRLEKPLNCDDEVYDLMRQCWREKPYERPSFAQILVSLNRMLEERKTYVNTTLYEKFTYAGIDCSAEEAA
pIC50: −log10 of the molar value. Structures can show the parent of a compound that is named as a salt.
Mark condition not met for pIC50 values under 7, and condition met for everything at or above.

Test whether the molecule O=C(Nc1ccccc1)Nc1ncc(-c2cc(C(=O)NCCN3CCOCC3)c3cn[nH]c3n2)s1 records pIC50 of 7 or higher.
condition not met

Test whether the molecule O=C(Nc1ncc(-c2cc(C(=O)NCCc3cnc[nH]3)c3cn[nH]c3n2)s1)Nc1cc(C(F)(F)F)ccc1F records pIC50 of 7 or higher.
condition met

Test whether the molecule CN(C)CCNC(=O)c1cc(-c2cnc(NC(=O)Nc3cc(C(F)(F)F)ccc3F)s2)nc2[nH]ncc12 records pIC50 of 7 or higher.
condition met

Test whether the molecule CN1CCN(C(=O)c2cc(-c3cnc(NC(=O)Nc4cc(C(F)(F)F)ccc4F)s3)nc3[nH]ncc23)CC1 records pIC50 of 7 or higher.
condition met

Test whether the molecule O=C(Nc1ncc(-c2cc(C(=O)NCCN3CCOCC3)c3cn[nH]c3n2)s1)Nc1cc(C(F)(F)F)ccc1F [Example 4, trifluoroacetate] records pIC50 of 7 or higher.
condition met

Test whether the molecule Nc1n[nH]c2nc(-c3ccc(NC(=O)Nc4cc(C(F)(F)F)ccc4F)cc3)ccc12 records pIC50 of 7 or higher.
condition not met
